# Test system: SK-MEL-5 melanoma
# protocolText: NCI-60 one-dose screen, 48 h (100 = growth as untreated, 0 = no growth, -100 = all killed)
# appliedConditions: 10 µM
About 83,000 compounds went through this panel and 20% of them were active in at least one assay; those are over-represented in the sample as a whole.
readoutLabel: growth (%)
Answer with a number only, understood to be in %.

Query string: Provide measured growth value, entry: C/C(N)=C(\C#N)C(=O)c1ccccc1
Result string: 99.5

Query string: State its growth for this compound: COc1ccc(Cl)cc1C(=O)Nc1nc2ccc(Cl)cc2s1
Result string: 92.8

----------
growth listing for selected compounds.
# Test system: SK-MEL-2 melanoma
# protocolText: NCI-60 one-dose screen, 48 h (100 = growth as untreated, 0 = no growth, -100 = all killed)
# appliedConditions: 10 µM
The panel holds about 83,000 compounds, 20% with a hit somewhere; the sample as a whole holds those more often.
Please give a number only; it is taken to be in %.

Use these answered entries as a reference point.
Query string: Provide one value: measured growth of Nc1nc(Nc2ccccc2)n[nH]1
Result string: 103

Query string: Tell me growth reported for CCCCN(CCCC)c1cc(C(=O)CCCCCN)c2ccccc2n1
Result string: 87.9

Query string: Determine its reported growth: CCN(CC)CCSCCCNc1c2ccc(Cl)cc2nc2ccc(OC)cc12
Result string: -77.5

---
Query string: Report measured growth; entry is CC1(C)CCC(=NNC(N)=S)CC1
Result string: 130

Hey, just so you know, these numbers are from PubChem BioAssay (NCI).
